system: HCMV AD169 virus; assay: HCMV AD169 CPE Assay (Example A); assay type: cell-based; conditions: Human betaherpesvirus 5, AD169, MRC5, 216 h, MRC-5 cells, 9 days, MTS readout
Under this convention, fulfilled denotes EC50 strictly below 300 nM and not fulfilled denotes EC50 at or above 300 nM.

Cc1cccc(-c2nnc(-c3ccc(NC(=O)c4cscn4)cc3)[nH]2)c1 :: not fulfilled
O=C(Nc1ccc(-c2cnc(-c3cccc(C(F)(F)F)c3)[nH]2)cn1)c1cscn1 :: not fulfilled
O=C(Nc1ccc(-c2cccc(-c3cccc(Cl)c3)n2)cc1)c1cocn1 :: not fulfilled
Cn1cc(-c2cccc(C(F)(F)F)c2)nc1-c1ccc(NC(=O)c2cscn2)cc1 :: fulfilled
O=C(Nc1ccc(-c2cnc(NC(=O)C3(c4cccc(Cl)c4)CCC3)[nH]2)cc1)c1cscn1 :: fulfilled
O=C(Nc1ccc(-c2cnc(-c3cccc(C(F)(F)F)c3)[nH]2)cc1)c1cscn1 :: not fulfilled
O=C(Nc1ccc(-c2cnc(-c3cc(C(F)(F)F)cc(C(F)(F)F)c3)[nH]2)cc1)c1cscn1 :: fulfilled
O=C(Nc1ccc(-c2nc(-c3cccc(C(F)(F)F)c3)nn2CCCN2CCOCC2)cc1)c1cscn1 :: not fulfilled

###

tested on: HCMV AD169-Bac-Luc2 US2-US6 clone #26 virus; assay: HCMV AD169-Bac Luciferase Assay (Example B); assay type: cell-based, Human Cytomegalovirus; conditions: Human betaherpesvirus 5, AD169, MRC5, 72 h, read-out: EC50 Example B
pEC50: −log10 of the molar value.
result type: pEC50

O=C(Nc1ccc(-c2cnc(-c3cccc(C(F)(F)F)c3)[nH]2)cc1)c1cocn1 [Compound 1143] :: 6.61
Cn1cc(-c2cccc(C(F)(F)F)c2)nc1-c1ccc(NC(=O)c2cscn2)cc1 [Compound 1097] :: 7.22
CC(c1cccc(C(F)(F)F)c1)c1nc(-c2ccc(NC(=O)c3cscn3)cn2)cn1CCCO (centres unmarked) [Compound 1111] :: 5.90
O=C(Nc1ccc(-c2cnc(-c3cccc(C(F)(F)F)c3)[nH]2)cn1)c1cscn1 [Compound 1052] :: 6.35
O=C(Nc1ccc(-c2nc(-c3cccc(C(F)(F)F)c3)nn2CCCO)cc1)c1cscn1 [Compound 1034] :: 7.23
CC(O)(c1cccc(C(F)(F)F)c1)c1nc(-n2ccc(NC(=O)c3cscn3)cc2=O)cn1CCCO (centres unmarked) [Compound 1119] :: 6.11
O=C(Nc1ccc(-c2cnc(-c3cccc(C(F)(F)F)c3)[nH]2)cc1)c1cscn1 [Compound 1018] :: 7.00
O=C(Nc1ccc(-c2cnc(-c3cc(C(F)(F)F)cc(C(F)(F)F)c3)[nH]2)cc1)c1cscn1 [Compound 1016] :: 7.46

###

tested on: HCMV AD169 virus; test: HCMV AD169 CPE Assay (Example A); assay type: cell-based; conditions: Human betaherpesvirus 5, AD169, MRC5, 216 h, MRC-5 cells, 9 days, MTS readout
result type: EC50 (µM)

CC(c1cccc(Cl)c1)c1ncc(-c2ccc(NC(=O)c3cscn3)cc2)[nH]1 (centres unmarked) :: 0.355
O=C(Nc1ccc(-c2cnc(-c3cccc(C(F)(F)F)c3)[nH]2)cc1)c1cocn1 :: 1.23
O=C(Nc1ccc(-c2nc(-c3cccc(C(F)(F)F)c3)nn2CCCO)cc1)c1cscn1 :: 0.275
O=C(Nc1ccc(-c2ncc(-c3cccc(Cl)c3)[nH]2)cc1)c1cscn1 :: 0.345
O=C(O)CCn1nc(-c2cccc(Cl)c2)nc1-c1ccc(NC(=O)c2cscn2)cc1 :: 4.1
O=C(Nc1ccc(-c2ncc(-c3cccc(C(F)(F)F)c3)[nH]2)cc1)c1csnn1 :: 0.26
O=C(Nc1ccc(-c2nnc(Nc3ccccc3)[nH]2)cc1)c1cscn1 :: 0.55
O=C(Nc1ccc(-c2nnc(-c3cccc(Cl)c3)[nH]2)cc1)c1csnn1 :: 2.05

Reference for the values: patent US9284310B2
